Reported inhibition at 1.14 µM is given for each of the following molecules.
Target: human full-length recombinant PKC βII (Homo sapiens, UniProt P05771)
Construct: Active human full-length recombinant PKC βII; purchased Invitrogen GmbH, Darmstadt, Germany
Sequence (P05771 1-673 isoform P05771-2): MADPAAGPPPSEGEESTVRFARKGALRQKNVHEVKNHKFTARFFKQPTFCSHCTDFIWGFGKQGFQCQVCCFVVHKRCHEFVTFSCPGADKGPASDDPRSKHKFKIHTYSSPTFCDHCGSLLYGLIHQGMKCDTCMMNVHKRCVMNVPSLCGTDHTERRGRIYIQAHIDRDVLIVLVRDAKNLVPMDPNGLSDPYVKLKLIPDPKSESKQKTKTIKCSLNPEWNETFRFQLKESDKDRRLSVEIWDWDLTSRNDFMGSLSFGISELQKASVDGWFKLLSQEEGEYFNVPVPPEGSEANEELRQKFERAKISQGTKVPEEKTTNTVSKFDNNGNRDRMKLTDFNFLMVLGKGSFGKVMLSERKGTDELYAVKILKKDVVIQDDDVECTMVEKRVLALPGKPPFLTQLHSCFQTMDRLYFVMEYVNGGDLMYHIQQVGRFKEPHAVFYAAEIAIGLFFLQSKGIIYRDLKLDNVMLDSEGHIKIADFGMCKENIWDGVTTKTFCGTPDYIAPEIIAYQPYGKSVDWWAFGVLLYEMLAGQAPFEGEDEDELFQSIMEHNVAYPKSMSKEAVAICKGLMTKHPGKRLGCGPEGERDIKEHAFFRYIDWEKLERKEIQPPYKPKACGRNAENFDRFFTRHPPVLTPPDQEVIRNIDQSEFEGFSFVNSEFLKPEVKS
Assay: Determination of PKC βII inhibition (Caliper mobility-shift kinase assay, phosphorylation of fluorescein peptide substrate)
Assay type: biochemical
Conditions: final compound concentration 1.14 µM (±0.15 µM); 60 min incubation at 32 °C
Protocol: Determination of PKC βII inhibition PKC βII inhibition was determined according to the following protocol: […] Test compounds were diluted to three times the test concentration in buffer 1 (30 mM Hepes-NaOH, pH 7.4, 0.01 % Pluronic F-68 and 3 % (v/v) DMSO). […] Phosphorylation of the substrate peptide was then detected on a Caliper 3000 instrument essentially as described by Pommereau et al (J. Biomol. Screening 2004, 9(5), 409-416). […]
// units = %; emit number, no label

INSERT INTO assay_data (molecule, result_type, recorded_result) VALUES
  ('Cc1ccccc1/C=C/c1n[nH]c2nc(-c3ccc(O)cc3)cc(C(=O)N3CCNCC3)c12 [Example 69]', 'inhibition at 1.14 µM', 94);

Task: Recorded inhibition at 1.14 µM for O=C(c1cc(-c2ccc(O)cc2)nc2[nH]nc(/C=C/c3ccc(F)cc3)c12)N1CCNCC1 [Example 37] with human full-length recombinant PKC βII (Homo sapiens, UniProt P05771), please?
Output: 97

Task: Under human full-length recombinant PKC βII (Homo sapiens, UniProt P05771): inhibition at 1.14 µM value of Cc1ccc(/C=C/c2n[nH]c3nc(-c4ccc(O)cc4)cc(C(=O)N4CCNCC4)c23)cc1F [Example 55] ?
Output: 76

Task: Lab request: please report inhibition at 1.14 µM under test system human full-length recombinant PKC βII (Homo sapiens, UniProt P05771) for O=C(c1cc(-c2ccc(O)cc2Cl)nc2[nH]nc(/C=C/c3ccccc3)c12)N1CCNCC1 [Example 13]
Output: 110

Task: Recorded inhibition at 1.14 µM for CS(=O)(=O)Cc1cccc(/C=C/c2n[nH]c3nc(-c4ccc(O)cc4)cc(C(=O)N4CCNCC4)c23)c1 [Example 15] with human full-length recombinant PKC βII (Homo sapiens, UniProt P05771), please?
Output: 99

Task: Could you share what inhibition at 1.14 µM was measured for CS(=O)(=O)c1cccc(/C=C/c2n[nH]c3nc(-c4ccc(O)cc4)cc(C(=O)N4CCNCC4)c23)c1 [Example 22] , tested on human full-length recombinant PKC βII (Homo sapiens, UniProt P05771)?
Output: 100

Task: // lookup inhibition at 1.14 µM | system=human full-length recombinant PKC βII (Homo sapiens, UniProt P05771) | key= O=C(c1cc(-c2ccc(O)cc2)nc2[nH]nc(/C=C/c3ccc(C(F)(F)F)cc3)c12)N1CCNCC1 [Example 42]
Output: 66

* * *

molecular target: human full-length recombinant PKC βII (Homo sapiens, UniProt P05771); construct: Active human full-length recombinant PKC βII; purchased Invitrogen GmbH, Darmstadt, Germany; experiment: Determination of PKC βII inhibition (Caliper mobility-shift kinase assay, phosphorylation of fluorescein peptide substrate); assay type: biochemical; details: final compound concentration 1.14 µM (±0.15 µM); 60 min incubation at 32 °C
Reported values of inhibition at 1.14 µM for individual entries
Your answer should be a plain number; it is taken to be in %.

Solved entries:
INSERT INTO assay_data (compound, result_type, recorded_result) VALUES
  ('O=C(c1cc(-c2ccc(O)c(F)c2)nc2[nH]nc(/C=C/c3ccccc3)c12)N1CCNCC1 [Example 12]', 'inhibition at 1.14 µM', 97),
  ('COc1ccc(/C=C/c2n[nH]c3nc(-c4ccc(O)cc4)cc(C(=O)N4CCNCC4)c23)cc1C [Example 73]', 'inhibition at 1.14 µM', 98),
  ('O=C(c1cc(-c2ccc(O)cc2)nc2[nH]nc(/C=C/c3ccccc3)c12)N1CCNC[C@@H]1CO [Example 16]', 'inhibition at 1.14 µM', 96),
  ('O=C(c1cc(-c2ccc(O)cc2)nc2[nH]nc(/C=C/c3cccc(N4CCOCC4)c3)c12)N1CCNCC1 [Example 27]', 'inhibition at 1.14 µM', 98),
  ('Cc1cc(F)ccc1/C=C/c1n[nH]c2nc(-c3ccc(O)cc3)cc(C(=O)N3CCNCC3)c12 [Example 61]', 'inhibition at 1.14 µM', 86);

Task: Enter reported inhibition at 1.14 µM observed with human full-length recombinant PKC βII (Homo sapiens, UniProt P05771) for CC(C)(CO)C(=O)N1CCN(C(=O)c2cc(-c3ccc(O)cc3)nc3[nH]nc(/C=C/c4ccccc4)c23)CC1 [Example 87]
Output: 94

Task: Under human full-length recombinant PKC βII (Homo sapiens, UniProt P05771): inhibition at 1.14 µM value of CS(=O)(=O)c1ccc(/C=C/c2n[nH]c3nc(-c4ccc(O)cc4)cc(C(=O)N4CCNCC4)c23)cc1 [Example 24] ?
Output: 99

Task: Requested read-out inhibition at 1.14 µM, target or system human full-length recombinant PKC βII (Homo sapiens, UniProt P05771), entry CCOc1ccc(/C=C/c2n[nH]c3nc(-c4ccc(O)cc4)cc(C(=O)N4CCNCC4)c23)cc1 [Example 67]
Output: 99
